# study.target: Cyclin-dependent kinase 4/cyclin D1 (Homo sapiens, UniProt P11802)
# Sequence (P11802 whole entry): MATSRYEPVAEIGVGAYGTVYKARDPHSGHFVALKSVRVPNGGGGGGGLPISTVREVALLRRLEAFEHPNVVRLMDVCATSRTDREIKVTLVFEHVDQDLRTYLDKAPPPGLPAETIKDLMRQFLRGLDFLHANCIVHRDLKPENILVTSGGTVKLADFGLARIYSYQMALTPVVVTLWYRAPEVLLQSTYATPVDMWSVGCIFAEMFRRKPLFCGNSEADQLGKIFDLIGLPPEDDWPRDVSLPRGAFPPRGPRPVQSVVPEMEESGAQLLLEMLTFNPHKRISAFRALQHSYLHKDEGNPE
# Sequence (P24385 whole entry, further chain): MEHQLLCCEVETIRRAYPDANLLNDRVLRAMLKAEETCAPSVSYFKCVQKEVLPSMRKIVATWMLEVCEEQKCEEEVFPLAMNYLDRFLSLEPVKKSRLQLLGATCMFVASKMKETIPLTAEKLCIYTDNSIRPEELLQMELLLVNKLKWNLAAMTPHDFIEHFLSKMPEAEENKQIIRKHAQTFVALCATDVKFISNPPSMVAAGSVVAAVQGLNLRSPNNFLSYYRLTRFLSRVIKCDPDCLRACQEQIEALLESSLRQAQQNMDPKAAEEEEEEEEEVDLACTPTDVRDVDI
# assay.text: Binding affinity for Cyclin-dependent kinase 4-cyclin D1
Recorded IC50 determines the label; the label ranges are category 1 (below 10 nM), category 2 (10 nM to below 200 nM), category 3 (200 nM or more)

| molecule | study.target | discrete.label |
| --- | --- | --- |
| CN(C)C1CCN(C(=O)c2ccc(-c3[nH]nc4c3C(=O)c3c(NC(=O)NN5CCOCC5)cccc3-4)s2)C1 (centres undefined) | Cyclin-dependent kinase 4/cyclin D1 (Homo sapiens, UniProt P11802) | category 2 |
| CN(C)NC(=O)Nc1cccc2c1C(=O)c1c(-c3cccs3)n[nH]c1-2 | Cyclin-dependent kinase 4/cyclin D1 (Homo sapiens, UniProt P11802) | category 3 |
| O=C(Nc1cccc2c1C(=O)c1c(-c3ccc(C(=O)N4CCCNCC4)s3)n[nH]c1-2)NN1CCOCC1 | Cyclin-dependent kinase 4/cyclin D1 (Homo sapiens, UniProt P11802) | category 1 |
| CCOC(=O)c1ccc(-c2[nH]nc3c2C(=O)c2c(NC(=O)NN4CCOCC4)cccc2-3)s1 | Cyclin-dependent kinase 4/cyclin D1 (Homo sapiens, UniProt P11802) | category 2 |
| CN(C)C1CCN(C(=O)c2ccc(-c3[nH]nc4c3C(=O)c3c(NC(=O)NN5CCOCC5)cccc3-4)s2)CC1 | Cyclin-dependent kinase 4/cyclin D1 (Homo sapiens, UniProt P11802) | category 1 |
| Cc1cc(-c2[nH]nc3c2C(=O)c2c(NC(=O)NN4CCOCC4)cccc2-3)c(C)s1 | Cyclin-dependent kinase 4/cyclin D1 (Homo sapiens, UniProt P11802) | category 2 |
| CN(C)NC(=O)Nc1cccc2c1C(=O)c1c(-c3csc(Cl)c3)n[nH]c1-2 | Cyclin-dependent kinase 4/cyclin D1 (Homo sapiens, UniProt P11802) | category 2 |
| CCOC(=O)c1ccc(-c2[nH]nc3c2C(=O)c2c(NC(=O)NN(C)C)cccc2-3)s1 | Cyclin-dependent kinase 4/cyclin D1 (Homo sapiens, UniProt P11802) | category 2 |

Kindly review the next molecule as well.
Prompt: Looking at CN(C)NC(=O)Nc1cccc2c1C(=O)c1c(-c3ccco3)n[nH]c1-2 , which class would you pick?
Response: category 3

----------
# study.target: Cyclin-dependent kinase 4/cyclin D1 (Homo sapiens, UniProt P11802)
# assay.text: Binding affinity for Cyclin-dependent kinase 4-cyclin D1
# Type: protein-complex assay
quantity.kind: IC50 (nM)
Give the value, in units of nM, as a plain number.

Record excerpt, results attached:
| compound | quantity.kind | recorded.value |
| --- | --- | --- |
| O=C(Nc1cccc2c1C(=O)c1c(-c3ccc(C(=O)N4CCCCCC4)s3)n[nH]c1-2)NN1CCOCC1 | IC50 | 17 |
| CCN1CCN(C(=O)c2ccc(-c3[nH]nc4c3C(=O)c3c(NC(=O)NN5CCOCC5)cccc3-4)s2)CC1 | IC50 | 5 |
| CN(C)C1CCCN(C(=O)c2ccc(-c3[nH]nc4c3C(=O)c3c(NC(=O)NN5CCOCC5)cccc3-4)s2)C1 (centres undefined) | IC50 | 13 |

Prompt: // fetch Cyclin-dependent kinase 4/cyclin D1 (Homo sapiens, UniProt P11802) IC50 for O=C(Nc1cccc2c1C(=O)c1c-2n[nH]c1-c1csc(Cl)c1)NN1CCOCC1
Response: 7

----------
# Tested on: HCT-116
# assay.text: Inhibition of HCT116 cellular proliferation
# Format: functional, cell-based
# condition.summary: Homo sapiens
Simple rule here: IC50 less than 80 nM is yes, otherwise no.

| compound | study.target | discrete.label |
| --- | --- | --- |
| Cc1cc(-c2[nH]nc3c2C(=O)c2c(NC(=O)NN4CCOCC4)cccc2-3)c(C)s1 | HCT-116 | yes |
| CCOC(=O)c1ccc(-c2[nH]nc3c2C(=O)c2c(NC(=O)NN4CCN(C)CC4)cccc2-3)s1 | HCT-116 | yes |
| CCOC(=O)c1ccc(-c2[nH]nc3c2C(=O)c2c(NC(=O)NN(C)C)cccc2-3)s1 | HCT-116 | no |

Prompt: hey, is IC50 for O=C(Nc1cccc2c1C(=O)c1c(-c3ccc(C(=O)N4CCCCC4)s3)n[nH]c1-2)NN1CCOCC1 lower than 80 nM or not?
Response: yes

Prompt: Follow-up item: CN(C)C1CCN(C(=O)c2ccc(-c3[nH]nc4c3C(=O)c3c(NC(=O)NN5CCOCC5)cccc3-4)s2)CC1
Response: no

Prompt: Follow-up item: CN(C)C1CCN(C(=O)c2ccc(-c3[nH]nc4c3C(=O)c3c(NC(=O)NN5CCOCC5)cccc3-4)s2)C1 (stereo not given)
Response: yes

Prompt: Follow-up item: O=C(Nc1cccc2c1C(=O)c1c(-c3ccc(C(=O)NCCN4CCCC4)s3)n[nH]c1-2)NN1CCOCC1
Response: no

Prompt: Follow-up item: O=C(Nc1cccc2c1C(=O)c1c(-c3ccc(C(=O)NCCN4CCOCC4)s3)n[nH]c1-2)NN1CCOCC1
Response: no

Prompt: Follow-up item: COc1ccc(-c2[nH]nc3c2C(=O)c2c(NC(=O)NN(C)C)cccc2-3)s1
Response: no

Prompt: Follow-up item: Cc1ccc(-c2n[nH]c3c2C(=O)c2c(NC(=O)NN(C)C)cccc2-3)s1
Response: yes

Prompt: Follow-up item: O=C(Nc1cccc2c1C(=O)c1c(-c3ccc(C(=O)N4CCCNCC4)s3)n[nH]c1-2)NN1CCOCC1
Response: no

Prompt: Follow-up item: CN(C)NC(=O)Nc1cccc2c1C(=O)c1c(-c3csc(Cl)c3)n[nH]c1-2
Response: yes

Prompt: Follow-up item: CN(C)NC(=O)Nc1cccc2c1C(=O)c1c(-c3cccs3)n[nH]c1-2
Response: yes

Prompt: Follow-up item: O=C(Nc1cccc2c1C(=O)c1c(-c3ccc(C(=O)N4CCCCCC4)s3)n[nH]c1-2)NN1CCOCC1
Response: yes

Prompt: Follow-up item: NC1CCN(C(=O)c2ccc(-c3[nH]nc4c3C(=O)c3c(NC(=O)NN5CCOCC5)cccc3-4)s2)C1 (stereo not given)
Response: no

----------
# study.target: Tyrosine-protein kinase ABL1 (Homo sapiens, UniProt P00519)
# Sequence (P00519 whole entry): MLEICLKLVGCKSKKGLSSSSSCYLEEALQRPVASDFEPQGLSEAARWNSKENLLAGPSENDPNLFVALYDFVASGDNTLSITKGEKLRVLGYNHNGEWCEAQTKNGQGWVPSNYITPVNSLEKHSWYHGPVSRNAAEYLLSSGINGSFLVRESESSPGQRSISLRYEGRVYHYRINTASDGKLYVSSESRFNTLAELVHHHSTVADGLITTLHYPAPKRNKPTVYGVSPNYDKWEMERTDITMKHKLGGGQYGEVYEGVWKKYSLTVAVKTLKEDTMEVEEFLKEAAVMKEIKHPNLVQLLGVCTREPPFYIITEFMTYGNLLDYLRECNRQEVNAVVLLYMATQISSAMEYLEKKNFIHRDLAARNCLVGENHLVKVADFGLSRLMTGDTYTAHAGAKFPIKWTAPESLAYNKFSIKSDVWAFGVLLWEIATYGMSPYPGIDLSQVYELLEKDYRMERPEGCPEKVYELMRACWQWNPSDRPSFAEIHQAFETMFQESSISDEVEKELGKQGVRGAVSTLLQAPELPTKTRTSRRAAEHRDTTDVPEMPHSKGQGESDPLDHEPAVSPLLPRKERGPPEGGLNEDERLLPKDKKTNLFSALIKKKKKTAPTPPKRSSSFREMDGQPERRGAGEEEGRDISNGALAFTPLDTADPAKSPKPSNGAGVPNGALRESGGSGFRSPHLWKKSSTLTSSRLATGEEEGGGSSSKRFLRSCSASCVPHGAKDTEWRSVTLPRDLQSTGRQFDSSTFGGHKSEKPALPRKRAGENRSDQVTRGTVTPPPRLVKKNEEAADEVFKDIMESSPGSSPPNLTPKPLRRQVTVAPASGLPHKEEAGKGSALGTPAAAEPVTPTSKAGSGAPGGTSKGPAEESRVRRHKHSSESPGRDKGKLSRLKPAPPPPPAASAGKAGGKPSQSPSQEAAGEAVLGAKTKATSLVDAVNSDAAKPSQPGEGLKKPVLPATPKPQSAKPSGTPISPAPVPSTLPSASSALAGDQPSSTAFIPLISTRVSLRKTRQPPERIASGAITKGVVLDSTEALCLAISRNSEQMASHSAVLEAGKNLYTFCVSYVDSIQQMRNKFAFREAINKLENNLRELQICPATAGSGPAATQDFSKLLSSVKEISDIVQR
quantity.kind: IC50 (µM)
Give the value, in units of µM, as a plain number.

Prompt: // fetch Tyrosine-protein kinase ABL1 (Homo sapiens, UniProt P00519) IC50 for Cc1nc(C)c(-c2[nH]nc3c2C(=O)c2c(NC(=O)NN4CCN(C)CC4)cccc2-3)s1
Response: 17.6

----------
# System: HCT-116
# assay.text: Inhibition of HCT116 cellular proliferation
# Type: functional, cell-based
# condition.summary: Homo sapiens
Readings of IC50 for the listed compounds
Give the value, in units of nM, as a plain number.

Record excerpt, results attached:
| compound | IC50, nM |
| --- | --- |
| CCN1CCN(C(=O)c2ccc(-c3[nH]nc4c3C(=O)c3c(NC(=O)NN5CCOCC5)cccc3-4)s2)CC1 | 63 |
| CN(C)NC(=O)Nc1cccc2c1C(=O)c1c(-c3ccsc3)n[nH]c1-2 | 68 |
| Cc1nc(C)c(-c2[nH]nc3c2C(=O)c2c(NC(=O)NN4CCOCC4)cccc2-3)s1 | 8 |
| CN(C)C1CCCN(C(=O)c2ccc(-c3[nH]nc4c3C(=O)c3c(NC(=O)NN5CCOCC5)cccc3-4)s2)C1 (stereo not drawn) | 188 |
| Cc1ccc(-c2[nH]nc3c2C(=O)c2c(NC(=O)NN4CCOCC4)cccc2-3)s1 | 25 |

Prompt: Reported IC50 for Cc1cc(-c2n[nH]c3c2C(=O)c2c(NC(=O)NN(C)C)cccc2-3)c(C)s1 : what is it?
Response: 110

Prompt: Follow-up item: O=C(Nc1cccc2c1C(=O)c1c(-c3ccc(C(=O)NCCN4CCCCC4)s3)n[nH]c1-2)NN1CCOCC1
Response: 20

Prompt: Follow-up item: CNC1CCN(C(=O)c2ccc(-c3[nH]nc4c3C(=O)c3c(NC(=O)NN5CCOCC5)cccc3-4)s2)C1 (stereo not drawn)
Response: 230

Prompt: Follow-up item: Cc1cc(-c2n[nH]c3c2C(=O)c2c(NC(=O)NN4CCN(C)CC4)cccc2-3)c(C)s1
Response: 24

Prompt: Follow-up item: CN(C)NC(=O)Nc1cccc2c1C(=O)c1c(-c3ccco3)n[nH]c1-2
Response: 160

Prompt: Follow-up item: O=C(Nc1cccc2c1C(=O)c1c(-c3ccc(C(=O)N4CCNCC4)s3)n[nH]c1-2)NN1CCOCC1
Response: 700

Prompt: Follow-up item: CCN1CCCN(C(=O)c2ccc(-c3[nH]nc4c3C(=O)c3c(NC(=O)NN5CCOCC5)cccc3-4)s2)CC1
Response: 33

Prompt: Follow-up item: O=C(Nc1cccc2c1C(=O)c1c-2n[nH]c1-c1csc(Cl)c1)NN1CCOCC1
Response: 35

Prompt: Follow-up item: CN1CCCN(C(=O)c2ccc(-c3[nH]nc4c3C(=O)c3c(NC(=O)NN5CCOCC5)cccc3-4)s2)CC1
Response: 19

Prompt: Follow-up item: Cc1nc(C)c(-c2[nH]nc3c2C(=O)c2c(NC(=O)NN4CCN(C)CC4)cccc2-3)s1
Response: 14

Prompt: Follow-up item: CN1CCN(C(=O)c2ccc(-c3[nH]nc4c3C(=O)c3c(NC(=O)NN5CCOCC5)cccc3-4)s2)CC1
Response: 110

Prompt: Follow-up item: CCOC(=O)c1ccc(-c2[nH]nc3c2C(=O)c2c(NC(=O)NN4CCOCC4)cccc2-3)s1
Response: 110
